Assignment: determine reported activation for the given molecules.
Assay: nonspecific cAMP agonists in parental HEK-CNG cells, counter-screen for GalR3 antagonist project, cell-based, fluorescence, high throughput (AID 652268)
Conditions: HEK293-CNG parental cells, cAMP membrane potential fluorescence; at 3 µM; hits give high values; normalised: DMSO wells 0%, forskolin wells 100%
In all, about 1,600 compounds went through this assay and about 160 (10%) were called active. These entries were drawn from the full list.
Answers are plain numbers, in %.

MOLECULE	activation (%)
CCOc1ccc(Br)cc1CSC(=N)N	3.59
CSc1nccc(NC(=O)c2ccc(C(C)(C)C)cc2)n1	0.22
COc1ccc(NS(=O)(=O)c2ccc(NC(=O)c3ccc(N(C)S(C)(=O)=O)cc3)cc2)cc1	-0.8
Cn1nccc1C(=O)NC1CCCc2c1cnn2-c1ccc(F)cc1F (configuration not stated)	-0.59
COc1ccc(C2CC(=O)Nc3sc(=N)c4c(N)c(C#N)c(N)nc4c32)cc1OC (configuration not stated)	-0.03

Record activation for all entries; do not skip any.
1. COc1ccc(C2Nc3ccccc3C(=O)N2c2ccc(Cl)cc2)cc1Cn1cc([N+](=O)[O-])cn1 (configuration not stated)
2. Cc1c(C=O)c2ccccc2n1CC(=O)O
3. CCCOc1ccc(Cc2c(Cl)nc(SC)nc2NC)cc1
4. COc1cc(Cl)c(C)cc1NC(=O)[C@@H]1CCCN1C(=O)c1cccs1

Key:
1: -0.27; 2: 0.2; 3: 1.12; 4: -0.08

Record activation for all entries; do not skip any.
1. CC(C)[C@@H](C(=O)OCC(=O)c1ccc2c(c1)NC(=O)CO2)N1C(=O)c2ccccc2C1=O
2. Cn1cnc([N+](=O)[O-])c1Nc1ccccc1O
3. Cn1c(CN2CCOCC2)nc2cc(NC(=O)c3ccc(Cl)cc3)ccc21
4. Cn1c(N)c(C(=O)COC(=O)c2cnc(Cl)c(Cl)c2)c(=O)n(C)c1=O
5. COCCN1Cc2cccc(C(=O)Nc3ccccc3OC)c2C1=O
6. COC(=O)c1ccc(/C=N/N2C(C)CCCC2C)cc1 (configuration not stated)
7. Nc1nonc1-n1nnc(C(=O)N/N=C/c2cc(Br)ccc2O)c1CSC1=NCCS1
8. O=C(Nc1ccc(CSc2ccccc2)cc1)c1ccc(CN2CCOCC2)cc1

Key:
1: 0.06; 2: 0.12; 3: 0.05; 4: 0.4; 5: 0.15; 6: 0.27; 7: 0.22; 8: -1.27

Record activation for all entries; do not skip any.
1. CCCCNC(=O)c1ccccc1NC(=O)C1=C(C)OCCS1
2. Cc1ccc(S(=O)(=O)N2CCN(C(=O)COC(=O)c3c(C)cc(C)cc3C)CC2)c(C)c1
3. O=C(CC(O)(C(F)(F)F)C(F)(F)F)Nc1ccc(Cl)c(Cl)c1
4. O=C(/C=C/c1c(F)cccc1Cl)Nc1nn[nH]n1
5. CC(C)(CNC(=O)c1ccc(Cl)c(S(=O)(=O)N2CCc3ccccc3C2)c1)N1CCOCC1

Key:
1: -0.01; 2: 0.55; 3: 1.84; 4: 0.23; 5: -0.38
